target: Protein farnesyltransferase (Homo sapiens, UniProt P49354+P49356); assay: Inhibitory activity against protein farnesyltransferase.; format: protein-complex assay
readout_label: pIC50
Here pIC50 is given on a logarithmic scale as minus log10 of the concentration in mol/L.

>  <chem_smiles>
COc1ccc(CSC[C@@H](N)C(=O)N2CCC(=C3c4ccc(Cl)cc4CCc4cccnc43)CC2)cc1

>  <experimental_system>
Protein farnesyltransferase (Homo sapiens, UniProt P49354+P49356)

>  <readout_label>
pIC50

>  <observed_value>
5.20

$$$$
>  <chem_smiles>
COC(=O)c1ccccc1S(=O)(=O)N1CCC(=C2c3ccc(Cl)cc3CCc3cccnc32)CC1

>  <experimental_system>
Protein farnesyltransferase (Homo sapiens, UniProt P49354+P49356)

>  <readout_label>
pIC50

>  <observed_value>
4.97

$$$$
>  <chem_smiles>
O=S(=O)(c1cccs1)N1CCC(=C2c3ccc(Cl)cc3CCc3cccnc32)CC1

>  <experimental_system>
Protein farnesyltransferase (Homo sapiens, UniProt P49354+P49356)

>  <readout_label>
pIC50

>  <observed_value>
4.89

$$$$
>  <chem_smiles>
CC(C)(C)OC(=O)NCC(=O)N1CCC(=C2c3ccc(Cl)cc3CCc3cccnc32)CC1

>  <experimental_system>
Protein farnesyltransferase (Homo sapiens, UniProt P49354+P49356)

>  <readout_label>
pIC50

>  <observed_value>
5.17

$$$$
>  <chem_smiles>
O=C(CN1C(=O)c2ccccc2C1=O)N1CCC(=C2c3ccc(Cl)cc3CCc3cccnc32)CC1

>  <experimental_system>
Protein farnesyltransferase (Homo sapiens, UniProt P49354+P49356)

>  <readout_label>
pIC50

>  <observed_value>
6.18

$$$$
>  <chem_smiles>
CSCC[C@H](C(=O)N1CCC(=C2c3ccc(Cl)cc3CCc3cccnc32)CC1)N1C(=O)c2ccccc2C1=O

>  <experimental_system>
Protein farnesyltransferase (Homo sapiens, UniProt P49354+P49356)

>  <readout_label>
pIC50

>  <observed_value>
5.33

$$$$

Query: I'd like to know its pIC50. The molecule in question is "O=C(N[C@H](Cc1ccc(O)cc1)C(=O)N1CCC(=C2c3ccc(Cl)cc3CCc3cccnc32)CC1)OCc1ccccc1"
Response: 5.92

Query: Same again, this time with "O=C(CNCc1ccccc1)N1CCC(=C2c3ccc(Cl)cc3CCc3cccnc32)CC1"
Response: 5.02

====

Recorded log10(IC50) values for a group of molecules are listed next.
target: Protein farnesyltransferase (Homo sapiens, UniProt P49354+P49356); experiment: Inhibitory activity against protein farnesyltransferase.; assay type: protein-complex assay
Scale type: logarithmic (base 10). Underlying IC50 unit: µM.

>  <molecule>
CCCCS(=O)(=O)N1CCC(=C2c3ccc(Cl)cc3CCc3cccnc32)CC1

>  <readout_label>
log10(IC50)

>  <observed_value>
0.68

$$$$
>  <molecule>
O=C(Cc1ccccc1)NCC(=O)N1CCC(=C2c3ccc(Cl)cc3CCc3cccnc32)CC1

>  <readout_label>
log10(IC50)

>  <observed_value>
0.92

$$$$
>  <molecule>
COc1ccc(CSC[C@@H](NC(=O)OC(C)(C)C)C(=O)N2CCC(=C3c4ccc(Cl)cc4CCc4cccnc43)CC2)cc1

>  <readout_label>
log10(IC50)

>  <observed_value>
0.48

$$$$
>  <molecule>
CN(C)S(=O)(=O)N1CCC(=C2c3ccc(Cl)cc3CCc3cccnc32)CC1

>  <readout_label>
log10(IC50)

>  <observed_value>
0.28

$$$$
>  <molecule>
NCC(=O)N1CCC(=C2c3ccc(Cl)cc3CCc3cccnc32)CC1

>  <readout_label>
log10(IC50)

>  <observed_value>
1.35

$$$$

Query: Consider the molecule "C[C@H](C(=O)N1CCC(=C2c3ccc(Cl)cc3CCc3cccnc32)CC1)N1C(=O)c2ccccc2C1=O" and give its measured log10(IC50).
Response: 0.66
